Readings of self-cleavage for the listed variants
B1: Hairpin Ribozyme (parent)
chain: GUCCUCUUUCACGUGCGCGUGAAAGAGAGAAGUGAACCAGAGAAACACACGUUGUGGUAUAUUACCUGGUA

Variants of: B1
method-notes: self-cleavage, relative activity (ratio to wild type); higher = more cleavage; co-transcriptional
measured-endpoint: self-cleavage

>  <mutation-key>
U14A C65U

>  <measured-endpoint>
self-cleavage

>  <observed-result>
0.292

$$$$
>  <mutation-key>
U2G A35G

>  <measured-endpoint>
self-cleavage

>  <observed-result>
0.213

$$$$
>  <mutation-key>
A47G A71G

>  <measured-endpoint>
self-cleavage

>  <observed-result>
0.142

$$$$
>  <mutation-key>
G27U C65G

>  <measured-endpoint>
self-cleavage

>  <observed-result>
0.188

$$$$
>  <mutation-key>
U63A C66G

>  <measured-endpoint>
self-cleavage

>  <observed-result>
0.0954

$$$$
>  <mutation-key>
G57C A61U

>  <measured-endpoint>
self-cleavage

>  <observed-result>
0.161

$$$$
>  <mutation-key>
C3A A36G

>  <measured-endpoint>
self-cleavage

>  <observed-result>
0.712

$$$$
>  <mutation-key>
U20G A31G

>  <measured-endpoint>
self-cleavage

>  <observed-result>
0.581

$$$$
>  <mutation-key>
A39C G56C

>  <measured-endpoint>
self-cleavage

>  <observed-result>
0.144

$$$$
>  <mutation-key>
U53A A71C

>  <measured-endpoint>
self-cleavage

>  <observed-result>
1.41

$$$$
>  <mutation-key>
A49U U58G

>  <measured-endpoint>
self-cleavage

>  <observed-result>
0.15

$$$$
>  <mutation-key>
U5A G21C

>  <measured-endpoint>
self-cleavage

>  <observed-result>
0.156

$$$$
>  <mutation-key>
U33G U63A

>  <measured-endpoint>
self-cleavage

>  <observed-result>
0.126

$$$$
>  <mutation-key>
A11G G40A

>  <measured-endpoint>
self-cleavage

>  <observed-result>
0.291

$$$$
>  <mutation-key>
G17A A49G

>  <measured-endpoint>
self-cleavage

>  <observed-result>
0.62

$$$$
>  <mutation-key>
G56U C65A

>  <measured-endpoint>
self-cleavage

>  <observed-result>
0.203

$$$$
>  <mutation-key>
A31C A59C

>  <measured-endpoint>
self-cleavage

>  <observed-result>
0.103

$$$$
>  <mutation-key>
G54A G69C

>  <measured-endpoint>
self-cleavage

>  <observed-result>
0.177

$$$$
>  <mutation-key>
A44G U62A

>  <measured-endpoint>
self-cleavage

>  <observed-result>
0.0675

$$$$
>  <mutation-key>
A28C G42U

>  <measured-endpoint>
self-cleavage

>  <observed-result>
0.0852

$$$$
>  <mutation-key>
A47U A64C

>  <measured-endpoint>
self-cleavage

>  <observed-result>
0.0694

$$$$
>  <mutation-key>
U8G C38A

>  <measured-endpoint>
self-cleavage

>  <observed-result>
0.165

$$$$
>  <mutation-key>
A22C G54C

>  <measured-endpoint>
self-cleavage

>  <observed-result>
0.317

$$$$
>  <mutation-key>
U33G G68C

>  <measured-endpoint>
self-cleavage

>  <observed-result>
0.0688

$$$$
>  <mutation-key>
A61U A64U

>  <measured-endpoint>
self-cleavage

>  <observed-result>
0.3

$$$$
>  <mutation-key>
G17U A36C

>  <measured-endpoint>
self-cleavage

>  <observed-result>
0.587

$$$$
>  <mutation-key>
U55C A71U

>  <measured-endpoint>
self-cleavage

>  <observed-result>
0.16

$$$$
>  <mutation-key>
U8A G27A

>  <measured-endpoint>
self-cleavage

>  <observed-result>
0.236

$$$$
>  <mutation-key>
G1C U70C

>  <measured-endpoint>
self-cleavage

>  <observed-result>
0.155

$$$$
